Molecular target: SEQ ID NO 18, mutant of Zea mays bx9 glucosyl transferase (Zea mays, UniProt B4G072, A281K/A334K/F21Y/M279F/S117V)
Construct: His tag (C); made in house
Sequence (B4G072 whole entry F21Y/S117V/M279F/A281K/A334K): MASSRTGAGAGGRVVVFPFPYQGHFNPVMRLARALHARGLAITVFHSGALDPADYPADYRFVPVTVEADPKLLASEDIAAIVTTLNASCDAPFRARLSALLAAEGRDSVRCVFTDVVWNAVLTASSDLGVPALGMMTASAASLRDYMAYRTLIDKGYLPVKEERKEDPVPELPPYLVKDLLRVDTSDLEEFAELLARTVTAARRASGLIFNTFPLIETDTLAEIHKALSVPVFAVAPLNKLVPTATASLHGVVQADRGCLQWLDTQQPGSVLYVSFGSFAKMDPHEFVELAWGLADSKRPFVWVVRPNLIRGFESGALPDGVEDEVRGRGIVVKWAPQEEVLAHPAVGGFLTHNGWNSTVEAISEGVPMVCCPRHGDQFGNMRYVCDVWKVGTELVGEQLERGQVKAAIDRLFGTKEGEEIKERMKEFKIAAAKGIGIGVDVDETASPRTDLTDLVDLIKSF
Assay: UDP-Glo glucosyl transferase assay, purified enzyme
Assay type: biochemical
Conditions: herbicide mM: V 0.300, VI 0.250, VII 0.210; IV, VIII, XI, XXI, XX, XVIII, XVI, XV, XIV 0.200; others 1.000
// values below are reported Activity
Express your answer in pmol/sec/pmol enzyme, writing the number without its unit.

Some solved entries appear below for comparison.
{"COMPOUND": "C[C@@H]1C(O)N(c2cc(C(C)(C)C)on2)C(=O)[C@@H]1C (stereo partly drawn)", "MEASUREMENT TYPE": "Activity", "VAL": 0.124}
{"COMPOUND": "CN1CC(O)N(c2cc(C(F)(F)F)ncn2)C1=O (stereo not drawn)", "MEASUREMENT TYPE": "Activity", "VAL": 0.553}
{"COMPOUND": "CN1CC(O)N(c2cc(C(F)(F)F)ccn2)C1=O (stereo not drawn)", "MEASUREMENT TYPE": "Activity", "VAL": 1.582}
{"COMPOUND": "Cc1cnc(N2C(=O)N(C)C(C)C2O)cc1C(F)(F)F (stereo not drawn)", "MEASUREMENT TYPE": "Activity", "VAL": 0.751}
{"COMPOUND": "C[C@H]1C(O)N(c2cc(C(F)(F)F)ccn2)C(=O)N1C (stereo partly drawn)", "MEASUREMENT TYPE": "Activity", "VAL": 0.982}
{"COMPOUND": "CN1CC(O)N(c2cc(C(C)(C)C)ncn2)C1=O (stereo not drawn)", "MEASUREMENT TYPE": "Activity", "VAL": 0.145}
{"COMPOUND": "CC1CC(O)N(c2ncc(C(F)(F)F)s2)C1=O (stereo not drawn)", "MEASUREMENT TYPE": "Activity", "VAL": 0.359}
{"COMPOUND": "CN1CC(O)N(c2nnc(C(C)(C)C)s2)C1=O (stereo not drawn)", "MEASUREMENT TYPE": "Activity", "VAL": 0.115}

Consider the record given below.
Prompt line: Need Activity, item CN1CC(O)N(c2cc(C(F)(F)F)c(Cl)cn2)C1=O (stereo not drawn)
Response line: 0.710

----------
// values below are reported Activity
Biological target: SEQ ID NO 21, mutant of Zea mays bx9 glucosyl transferase (Zea mays, UniProt B4G072, A334K/F21Y/L194V/M279F/S117V)
Construct: His tag (C); made in house
Sequence (B4G072 whole entry F21Y/S117V/L194V/M279F/A334K): as the sequence (B4G072 whole entry F21Y/S117V/M279F/A281K/A334K) above, with L194V, K281A counted along it
Assay: UDP-Glo glucosyl transferase assay, purified enzyme
Assay type: biochemical
Conditions: lower block, concentration printed only in upper block: V 0.300, VII 0.210; IV, VIII, XI, XXI, XX, XVIII, XVI, XV, XIV 0.200; others 1.000 mM
Protocol: Glucosyl transferase activity is assayed via measurement of acceptor substrate-dependent production of UDP from ultrapure UDP-glucose using the Promega UDP-Glo™ method and according to the manufacturer's instructions. Assays are run in 96 well microtiter plates. […]

{"COMPOUND": "Cc1cnc(N2C(=O)N(C)C(C)C2O)cc1C(F)(F)F (stereo not drawn)", "Activity": "0.338 pmol/sec/pmol enzyme"}
{"COMPOUND": "CN1CC(O)N(c2cc(C(C)(C)C)on2)C1=O (stereo not drawn)", "Activity": "0.015 pmol/sec/pmol enzyme"}
{"COMPOUND": "C[C@@H]1C(=O)N(c2noc(C(C)(C)C)c2C#N)C(O)[C@H]1C (stereo partly drawn)", "Activity": "0.040 pmol/sec/pmol enzyme"}
{"COMPOUND": "Cc1cnc(N2C(=O)N(C)CC2O)cc1C(F)(F)F (stereo not drawn)", "Activity": "0.425 pmol/sec/pmol enzyme"}
{"COMPOUND": "CN1CC(O)N(c2cc(C(C)(C)C)ncn2)C1=O (stereo not drawn)", "Activity": "0.008 pmol/sec/pmol enzyme"}

Consider the record given below.
Prompt line: Need Activity, item CN1CC(O)N(c2nnc(C(C)(C)C)s2)C1=O (stereo not drawn)
Response line: 0.012 pmol/sec/pmol enzyme

----------
// values below are reported Activity
Target: SEQ ID NO 20, mutant of Zea mays bx9 glucosyl transferase (Zea mays, UniProt B4G072, A281K/A334K/F21Y/L194V/M279F/S117V)
Construct: His tag (C); made in house
Sequence (B4G072 whole entry F21Y/S117V/L194V/M279F/A281K/A334K): as the sequence (B4G072 whole entry F21Y/S117V/M279F/A281K/A334K) above, with L194V counted along it
Type: biochemical
Details: lower block, concentration printed only in upper block: V 0.300, VII 0.210; IV, VIII, XI, XXI, XX, XVIII, XVI, XV, XIV 0.200; others 1.000 mM
Please answer in the form of a number followed by its unit of measurement.

Some solved entries appear below for comparison.
{"COMPOUND": "Cc1cnc(N2C(=O)N(C)CC2O)cc1C(F)(F)F (stereo not shown)", "VAL": "1.141 pmol/sec/pmol enzyme"}
{"COMPOUND": "CC1C(=O)N(c2cc(C(F)(F)F)n(C)n2)C(O)[C@@H]1C (stereo partly shown)", "VAL": "0.402 pmol/sec/pmol enzyme"}
{"COMPOUND": "C[C@@H]1C(O)N(c2cc(C(C)(C)C)on2)C(=O)[C@@H]1C (stereo partly shown)", "VAL": "0.145 pmol/sec/pmol enzyme"}
{"COMPOUND": "COC1=C(C)C(O)N(c2cc(C(C)(C)C)ncn2)C1=O (stereo not shown)", "VAL": "0.137 pmol/sec/pmol enzyme"}
{"COMPOUND": "CN1CC(O)N(c2cc(C(C)(C)C)c(Cl)nn2)C1=O (stereo not shown)", "VAL": "0.144 pmol/sec/pmol enzyme"}

Prompt line: Need Activity, item CN1CC(O)N(c2cc(C(F)(F)F)ncn2)C1=O (stereo not shown)
Response line: 0.758 pmol/sec/pmol enzyme

Prompt line: Another compound to check: C[C@@H]1C(=O)N(c2noc(C(C)(C)C)c2C#N)C(O)[C@H]1C (stereo partly shown)
Response line: 0.143 pmol/sec/pmol enzyme

Prompt line: Another compound to check: C[C@H]1C(=O)N(c2noc(C(C)(C)C)c2C#N)C(O)[C@@H]1C (stereo partly shown)
Response line: 0.119 pmol/sec/pmol enzyme

Prompt line: Another compound to check: CON1C(=O)N(c2cc(C(F)(F)F)c(Cl)cn2)C(O)C1C (stereo not shown)
Response line: 1.457 pmol/sec/pmol enzyme

Prompt line: Another compound to check: CN1CC(O)N(c2cc(C(C)(C)C)on2)C1=O (stereo not shown)
Response line: 0.120 pmol/sec/pmol enzyme

----------
Test system: wheat bx glucosyl transferase (SEQ ID NO 4)
Test: UDP-Glo glucosyl transferase assay, purified enzyme
Assay type: biochemical
Details: herbicide 0.500 mM; limit of detection about 0.001
// values below are reported Activity
Please answer in the form of a number followed by its unit of measurement.

{"MOLECULE": "CON1C(=O)N(c2cc(C(F)(F)F)ccn2)C(O)[C@@H]1C (stereo partly shown)", "Activity": "0.000 pmol/sec/pmol enzyme"}
{"MOLECULE": "CN1CC(O)N(c2cc(C(F)(F)F)c(Cl)cn2)C1=O (stereo not shown)", "Activity": "0.001 pmol/sec/pmol enzyme"}
{"MOLECULE": "CN1CC(O)N(c2cc(C(F)(F)F)ccn2)C1=O (stereo not shown)", "Activity": "0.001 pmol/sec/pmol enzyme"}

Prompt line: Need Activity, item Cc1cnc(N2C(=O)N(C)CC2O)cc1C(F)(F)F (stereo not shown)
Response line: 0.000 pmol/sec/pmol enzyme

----------
Target: SEQ ID NO 20, mutant of Zea mays bx9 glucosyl transferase (Zea mays, UniProt B4G072, A281K/A334K/F21Y/L194V/M279F/S117V)
Construct: His tag (C); made in house
Assay type: biochemical
Conditions: lower block, concentration printed only in upper block: V 0.300, VII 0.210; IV, VIII, XI, XXI, XX, XVIII, XVI, XV, XIV 0.200; others 1.000 mM
Procedure: Glucosyl transferase activity is assayed via measurement of acceptor substrate-dependent production of UDP from ultrapure UDP-glucose using the Promega UDP-Glo™ method and according to the manufacturer's instructions. Assays are run in 96 well microtiter plates. […] All of these proteins were C-terminally his-tagged, expressed and purified as described in Example 1. Assays were run and analyzed as described in example 1.
MEASUREMENT TYPE: Activity (pmol/sec/pmol enzyme)
Express your answer in pmol/sec/pmol enzyme, writing the number without its unit.

Some solved entries appear below for comparison.
{"COMPOUND": "C[C@H]1C(O)N(c2cc(C(F)(F)F)ccn2)C(=O)N1C (some centres unmarked)", "UNIT NAME": "pmol/sec/pmol enzyme", "Activity": 1.462}
{"COMPOUND": "CN1CC(O)N(c2cc(C(F)(F)F)c(Cl)cn2)C1=O (centres unmarked)", "UNIT NAME": "pmol/sec/pmol enzyme", "Activity": 1.046}
{"COMPOUND": "CC1CC(O)N(c2ncc(C(F)(F)F)s2)C1=O (centres unmarked)", "UNIT NAME": "pmol/sec/pmol enzyme", "Activity": 0.687}
{"COMPOUND": "CN1CC(O)N(c2cc(C(F)(F)F)ccn2)C1=O (centres unmarked)", "UNIT NAME": "pmol/sec/pmol enzyme", "Activity": 1.889}
{"COMPOUND": "C[C@H]1C(O)N(c2cc(C(C)(C)F)ncn2)C(=O)N1C (some centres unmarked)", "UNIT NAME": "pmol/sec/pmol enzyme", "Activity": 0.411}

Prompt line: Need Activity, item C[C@@H]1C(O)N(c2noc(C(C)(C)C)c2C#N)C(=O)[C@@H]1C (some centres unmarked)
Response line: 0.143

Prompt line: Another compound to check: CN1CC(O)N(c2cc(C(C)(C)C)ncn2)C1=O (centres unmarked)
Response line: 0.079

Prompt line: Another compound to check: Cc1cnc(N2C(=O)N(C)C(C)C2O)cc1C(F)(F)F (centres unmarked)
Response line: 0.698

Prompt line: Another compound to check: CC1C(O)N(c2cc(C(F)(F)F)c(Cl)cn2)C(=O)N1C (centres unmarked)
Response line: 0.414

Prompt line: Another compound to check: C[C@@H]1C(O)N(c2cc(C(C)(C)C)on2)C(=O)N1C (some centres unmarked)
Response line: 0.049

Prompt line: Another compound to check: CN1CC(O)N(c2nnc(C(C)(C)C)s2)C1=O (centres unmarked)
Response line: 0.068

The reported measurements were obtained from patent US20200270588A1.
